- Tested on: LPS-induced NO production in RAW264.7 cells
- TEST_SUMMARY: Inhibition of LPS-induced NO production (Griess reagent)
- Format: cell-based
- CONDITION_CONTEXT: Mus musculus, 10 μM compound, 1 h pretreatment, then LPS (1 μg/mL) 24 h, mean ± SD (n = 3)
MEASURED_ATTRIBUTE: inhibition at 10 µM (%)
Numbers only, in %.

[
  {
    "COMPOUND_STRING": "CNC(=O)COc1cc(O)c2c(c1)O[C@H](c1ccc(OC)c(O)c1)CC2=O",
    "UNIT_SPEC": "%",
    "inhibition at 10 µM": 16
  },
  {
    "COMPOUND_STRING": "COc1ccc([C@@H]2CC(=O)c3c(O)cc(OCC(=O)N(C)C)cc3O2)cc1O",
    "UNIT_SPEC": "%",
    "inhibition at 10 µM": 13.5
  }
]

Here is the next item to consider.
Tell me inhibition at 10 µM reported for COc1ccc([C@@H]2CC(=O)c3c(O)cc(OCC(=O)NCC(C)C)cc3O2)cc1O 23.5
